molecular target: σ70, native, untagged (pLN12), P00579
Sequence (P00579 whole entry): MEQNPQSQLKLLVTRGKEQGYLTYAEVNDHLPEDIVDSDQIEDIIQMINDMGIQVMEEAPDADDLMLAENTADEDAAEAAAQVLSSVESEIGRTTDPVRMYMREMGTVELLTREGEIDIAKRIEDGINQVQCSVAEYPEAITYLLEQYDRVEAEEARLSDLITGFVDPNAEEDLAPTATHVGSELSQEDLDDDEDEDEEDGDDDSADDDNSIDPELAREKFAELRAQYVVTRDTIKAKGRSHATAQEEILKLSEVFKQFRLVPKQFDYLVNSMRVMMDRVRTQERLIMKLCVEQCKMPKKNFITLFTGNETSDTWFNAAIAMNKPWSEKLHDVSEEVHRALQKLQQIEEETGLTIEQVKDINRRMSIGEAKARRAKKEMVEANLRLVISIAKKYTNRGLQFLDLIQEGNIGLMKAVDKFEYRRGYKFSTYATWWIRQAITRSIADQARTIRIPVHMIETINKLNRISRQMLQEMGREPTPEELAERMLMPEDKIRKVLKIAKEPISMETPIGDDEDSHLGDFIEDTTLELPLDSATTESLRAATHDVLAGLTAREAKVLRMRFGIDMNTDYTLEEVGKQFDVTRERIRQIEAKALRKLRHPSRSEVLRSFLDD
experimental.readout: Growth at 42° C. with plasmid β′ as sole source of β′ (strain RL602)

β′ mutant N274P (protein) MKDLLKFLKAQTKTEEFDAIKIALASPDMIRSWSFGEVKKPETINYRTFKPERDGLFCARIFGPVKDYECLCGKYKRLKHRGVICEKCGVEVTQTKVRRERMGHIELASPTAHIWFLKSLPSRIGLLLDMPLRDIERVLYFESYVVIEGGMTNLERQQILTEEQYLDALEEFGDEFDAKMGAEAIQALLKSMDLEQECEQLREELNETNSETKRKKLTKRIKLLEAFVQSGNKPEWMILTVLPVLPPDLRPLVPLDGGRFATSDLNDLYRRVIPRNNRLKRLLDLAAPDIIVRNEKRMLQEAVDALLDNGRRGRAITGS: -
β′ mutant R270L (protein) MKDLLKFLKAQTKTEEFDAIKIALASPDMIRSWSFGEVKKPETINYRTFKPERDGLFCARIFGPVKDYECLCGKYKRLKHRGVICEKCGVEVTQTKVRRERMGHIELASPTAHIWFLKSLPSRIGLLLDMPLRDIERVLYFESYVVIEGGMTNLERQQILTEEQYLDALEEFGDEFDAKMGAEAIQALLKSMDLEQECEQLREELNETNSETKRKKLTKRIKLLEAFVQSGNKPEWMILTVLPVLPPDLRPLVPLDGGRFATSDLNDLYLRVINRNNRLKRLLDLAAPDIIVRNEKRMLQEAVDALLDNGRRGRAITGS: +
β′ mutant E301P (protein) MKDLLKFLKAQTKTEEFDAIKIALASPDMIRSWSFGEVKKPETINYRTFKPERDGLFCARIFGPVKDYECLCGKYKRLKHRGVICEKCGVEVTQTKVRRERMGHIELASPTAHIWFLKSLPSRIGLLLDMPLRDIERVLYFESYVVIEGGMTNLERQQILTEEQYLDALEEFGDEFDAKMGAEAIQALLKSMDLEQECEQLREELNETNSETKRKKLTKRIKLLEAFVQSGNKPEWMILTVLPVLPPDLRPLVPLDGGRFATSDLNDLYRRVINRNNRLKRLLDLAAPDIIVRNEKRMLQPAVDALLDNGRRGRAITGS: -

Data origin, for the record: patent US20030104423
